- TEST: RP-18 HPLC chromatography lipophilicity estimation
- Assay type: physicochemical
- RUN PARAMETERS: methanol/acetate buffer pH 4.0
Reported −S (slope) values for the following compounds.
Quick one: just the number, no unit, thanks!

// below: answered compounds
Cc1c(O)ccc(-c2nc3ccc(C#N)cc3[nH]2)c1O [Compound 11]; 3.867
Oc1cc(O)c(-c2nc3ccccc3[nH]2)cc1Cl [Compound 1]; 3.896

For CCOC(=O)c1ccc2[nH]c(-c3cc(CC)c(O)cc3O)nc2c1 [Compound 9] the compound record lists −S (slope) as 4.160

Looking up COc1ccc2nc(-c3ccc(O)c(O)c3O)[nH]c2c1 [Compound 7] , I found its −S (slope) recorded as 3.870

====

- ASSAY TARGET: Acetylcholinesterase (AChE, E.C. 3.1.1.7, from human erythrocytes) (Homo sapiens, UniProt P22303)
- Construct: Acetylcholinesterase (AChE, E.C. 3.1.1.7, from human erythrocytes); purchased Sigma-Aldrich (Steinheim, Germany); host or cells: human erythrocytes (natural source)
- Sequence (P22303 32-617 isoform P22303-2 limits assumed): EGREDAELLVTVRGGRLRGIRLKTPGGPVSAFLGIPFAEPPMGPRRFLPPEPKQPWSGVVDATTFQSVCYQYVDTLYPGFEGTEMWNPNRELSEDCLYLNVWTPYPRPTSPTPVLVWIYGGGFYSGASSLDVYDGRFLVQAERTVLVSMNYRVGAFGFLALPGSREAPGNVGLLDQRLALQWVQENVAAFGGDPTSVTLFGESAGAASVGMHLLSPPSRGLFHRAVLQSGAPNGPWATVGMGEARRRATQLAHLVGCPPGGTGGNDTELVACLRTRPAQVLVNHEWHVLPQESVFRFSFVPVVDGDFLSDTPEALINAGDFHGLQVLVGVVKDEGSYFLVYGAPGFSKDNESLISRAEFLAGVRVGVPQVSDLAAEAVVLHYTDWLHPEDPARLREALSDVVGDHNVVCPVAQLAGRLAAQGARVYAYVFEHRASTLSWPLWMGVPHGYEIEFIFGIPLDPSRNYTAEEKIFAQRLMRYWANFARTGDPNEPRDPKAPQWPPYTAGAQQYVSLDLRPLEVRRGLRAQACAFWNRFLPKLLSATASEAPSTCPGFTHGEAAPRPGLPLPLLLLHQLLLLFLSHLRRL
- TEST: biochemical
- Assay type: biochemical
- RUN PARAMETERS: IC50(BuChE)/IC50(AChE)
In this scheme, each record receives a class according to its Selectivity for AChE; the ranges are low bin: < 60; mid bin: ≥ 60 and < 100; high bin: ≥ 100

Oc1ccc(-c2nc3ccccc3[nH]2)c(O)c1 [bib-1,3-diol, 4-(1H-benzimidazol-2-yl)benzene-1,3-diol, reference compound]; high bin

Into which bin does this compound go? Oc1cc(O)c(-c2nc3cc(Cl)c(Cl)cc3[nH]2)cc1Cl [Compound 2]
low bin

State the class of the compound shown: CCc1cc(-c2nc3cc(C(F)(F)F)cc(Cl)c3[nH]2)c(O)cc1O [Compound 4]
high bin

====

- ASSAY TARGET: Acetylcholinesterase (AChE, E.C. 3.1.1.7, from human erythrocytes) (Homo sapiens, UniProt P22303)
- Construct: Acetylcholinesterase (AChE, E.C. 3.1.1.7, from human erythrocytes); purchased Sigma-Aldrich (Steinheim, Germany); host or cells: human erythrocytes (natural source)
- TEST: biochemical
- Format: biochemical
RESULT TYPE: Activity against AChE (in words)

Oc1cc(O)c(-c2nc3ccccc3[nH]2)cc1Cl; active
COc1ccc2nc(-c3ccc(O)c(O)c3O)[nH]c2c1; inactive
COc1ccc2nc(-c3ccc(O)c(C)c3O)[nH]c2c1; active
CCOC(=O)c1ccc2[nH]c(-c3c(O)cc(O)cc3O)nc2c1; inactive

====

- ASSAY TARGET: butyrylcholinesterase (BuChE, E.C. 3.1.1.8, from equine serum) (Equus caballus)
- Construct: butyrylcholinesterase (BuChE, E.C. 3.1.1.8, from equine serum); purchased Sigma-Aldrich (Steinheim, Germany); host or cells: equine serum (natural source)
- Sequence (P81908 whole entry): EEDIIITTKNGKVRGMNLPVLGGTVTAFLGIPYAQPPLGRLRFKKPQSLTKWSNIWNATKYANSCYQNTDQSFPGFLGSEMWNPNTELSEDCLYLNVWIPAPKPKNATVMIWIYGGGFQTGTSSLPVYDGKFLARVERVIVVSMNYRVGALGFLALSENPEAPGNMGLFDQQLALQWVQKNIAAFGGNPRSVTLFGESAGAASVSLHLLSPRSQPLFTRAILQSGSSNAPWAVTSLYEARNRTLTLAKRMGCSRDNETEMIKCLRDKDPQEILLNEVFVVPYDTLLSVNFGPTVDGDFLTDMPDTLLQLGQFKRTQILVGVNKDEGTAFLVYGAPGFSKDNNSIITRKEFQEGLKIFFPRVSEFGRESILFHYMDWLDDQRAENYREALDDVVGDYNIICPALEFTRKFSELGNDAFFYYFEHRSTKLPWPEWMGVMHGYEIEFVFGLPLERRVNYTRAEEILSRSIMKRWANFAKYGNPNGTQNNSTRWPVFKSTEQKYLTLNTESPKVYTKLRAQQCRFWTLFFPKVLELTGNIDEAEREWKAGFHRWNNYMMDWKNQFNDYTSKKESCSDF
- TEST: biochemical
- RUN PARAMETERS: means ± SD of three experiments; read-out: BuChE IC50
RESULT TYPE: pIC50
# pIC50 is unitless: minus log10 of the molar concentration; print number only

Previously resolved entries follow.
O=[N+]([O-])c1ccc2nc(-c3ccc(O)cc3O)[nH]c2c1; 3.97
Oc1ccc(-c2nc3ccccc3[nH]2)c(O)c1 [bib-1,3-diol, 4-(1H-benzimidazol-2-yl)benzene-1,3-diol, reference compound]; 4.51

Given item "Oc1cc(O)c(-c2nc3ccccc3[nH]2)cc1Cl" , the value recorded as its pIC50 is 5.37

====

Reported pIC50 values, Acetylcholinesterase (AChE, E.C. 3.1.1.7, from human erythrocytes) (Homo sapiens).
Note on pIC50: it is the negative log10 of concentration, concentration in mol/L.

These solved cases illustrate the format of a correct answer.
O=[N+]([O-])c1ccc2nc(-c3ccc(O)cc3O)[nH]c2c1; 5.83
CCOC(=O)c1ccc2[nH]c(-c3cc(CC)c(O)cc3O)nc2c1; 6.02

# input for lookup
For this compound ( "Oc1cc(O)c(-c2nc3ccccc3[nH]2)cc1Cl" ), measured pIC50 is 7.12

====

Entries and their IC50 values follow.
- ASSAY TARGET: butyrylcholinesterase (BuChE, E.C. 3.1.1.8, from equine serum) (Equus caballus)
- Construct: butyrylcholinesterase (BuChE, E.C. 3.1.1.8, from equine serum); purchased Sigma-Aldrich (Steinheim, Germany); host or cells: equine serum (natural source)
- TEST: biochemical
- RUN PARAMETERS: means ± SD of three experiments; read-out: BuChE IC50

Cc1c(O)ccc(-c2nc3ccc(C#N)cc3[nH]2)c1O [Compound 11]; > 500 µM

For reference, reported IC50 for CCOC(=O)c1ccc2[nH]c(-c3c(O)cc(O)cc3O)nc2c1 [Compound 10] stands at > 500 µM

What the record says about COc1ccc2nc(-c3ccc(O)c(O)c3O)[nH]c2c1 [Compound 7] : IC50 is > 500 µM

====

- TEST: RP-18 HPLC chromatography lipophilicity estimation
- Format: physicochemical
- RUN PARAMETERS: methanol/acetate buffer pH 4.0
Criterion: −S (slope) meeting or surpassing 5. Met: Condition met. Not met: Condition not met.

CCOC(=O)c1ccc2[nH]c(-c3ccc(O)c(C)c3O)nc2c1; Condition not met
O=[N+]([O-])c1ccc2nc(-c3ccc(O)cc3O)[nH]c2c1; Condition not met
Oc1ccc(-c2nc3ccccc3[nH]2)c(O)c1 [bib-1,3-diol, 4-(1H-benzimidazol-2-yl)benzene-1,3-diol, reference compound]; Condition not met
Cc1c(O)ccc(-c2nc3ccc(C(F)(F)F)cc3[nH]2)c1O; Condition met
COc1ccc2nc(-c3cc(Cl)c(O)cc3O)[nH]c2c1; Condition met
CCc1cc(-c2nc3cc(C(F)(F)F)cc(Cl)c3[nH]2)c(O)cc1O; Condition not met
Cc1c(O)ccc(-c2nc3ccc([N+](=O)[O-])cc3[nH]2)c1O; Condition not met
Oc1cc(O)c(-c2nc3cc(Cl)c(Cl)cc3[nH]2)cc1Cl; Condition met

Item "COc1ccc2nc(-c3ccc(O)c(C)c3O)[nH]c2c1" with −S (slope) of 5 or above?
Condition met

Check this compound for −S (slope) at or above 5: "CCOC(=O)c1ccc2[nH]c(-c3c(O)cc(O)cc3O)nc2c1"
Condition not met

====

- ASSAY TARGET: Acetylcholinesterase (AChE, E.C. 3.1.1.7, from human erythrocytes) (Homo sapiens, UniProt P22303)
- Construct: Acetylcholinesterase (AChE, E.C. 3.1.1.7, from human erythrocytes); purchased Sigma-Aldrich (Steinheim, Germany); host or cells: human erythrocytes (natural source)
- TEST: biochemical
- Assay type: biochemical
- RUN PARAMETERS: IC50(BuChE)/IC50(AChE)
Response field label takes true (1) when Selectivity for AChE is strictly below 60 and false (0) in all other cases.

Example entries and their recorded answers appear below.
Cc1c(O)ccc(-c2nc3ccc(C(F)(F)F)cc3[nH]2)c1O; false (0)
CCOC(=O)c1ccc2[nH]c(-c3cc(CC)c(O)cc3O)nc2c1; true (1)

Take the molecule "CCOC(=O)c1ccc2[nH]c(-c3ccc(O)c(C)c3O)nc2c1" and say whether its Selectivity for AChE is less than 60.
false (0)

Hi there! Is Selectivity for AChE for "Cc1c(O)ccc(-c2nc3ccc([N+](=O)[O-])cc3[nH]2)c1O" below 60, do you know?
false (0)

Check if Selectivity for AChE falls below 60 for "O=[N+]([O-])c1ccc2nc(-c3ccc(O)cc3O)[nH]c2c1" .
false (0)

====

- ASSAY TARGET: Acetylcholinesterase (AChE, E.C. 3.1.1.7, from human erythrocytes) (Homo sapiens, UniProt P22303)
RESULT TYPE: IC50

COc1ccc2nc(-c3ccc(O)c(O)c3O)[nH]c2c1; > 500 µM
CCc1cc(-c2nc3ccc(C#N)cc3[nH]2)c(O)cc1O; > 500 µM

Please look at the following compound next.
IC50 reported for this compound "CCOC(=O)c1ccc2[nH]c(-c3c(O)cc(O)cc3O)nc2c1" : > 500 µM

====

- ASSAY TARGET: Acetylcholinesterase (AChE, E.C. 3.1.1.7, from human erythrocytes) (Homo sapiens, UniProt P22303)
- Construct: Acetylcholinesterase (AChE, E.C. 3.1.1.7, from human erythrocytes); purchased Sigma-Aldrich (Steinheim, Germany); host or cells: human erythrocytes (natural source)
- TEST: biochemical
- Type: biochemical
- RUN PARAMETERS: IC50(BuChE)/IC50(AChE)
- Protocol: The details were described previously. Their potency was determined using the modified Ellman’s method and expressed as the half of maximal inhibitory concentration, IC50 [34].
Quick list: Selectivity for AChE per entry.
Write the number on its own, no unit after it.

COc1ccc2nc(-c3cc(Cl)c(O)cc3O)[nH]c2c1 [Compound 6]; 203.4
COc1ccc2nc(-c3ccc(O)c(C)c3O)[nH]c2c1 [Compound 5]; 1.4

Now look at this one.
Summary for this compound, Oc1cc(O)c(-c2nc3ccccc3[nH]2)cc1Cl [Compound 1] : Selectivity for AChE is 55.8
